# TEST SUMMARY: protease stability score; higher = more stable; yeast display proteolysis, trypsin and chymotrypsin;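 note: relative to predicted unfolded state with 0 unfolded-like and 1 meaning tenfold more protease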
Exercise: state measured protease stability score for each of the sequences provided.
Please state the value as a number alone, without comment.

The sequence identified as SEHHKEAREMVEELIRLYETGDEDTLRTLADPHVRQDINGVDYVGREFAADLLIDEMREIRSHIHVHRIHTYNGQVHVDGHLEFIIGDKSYRLRVHMVVEKVDGKWLHRSEHYK registered its protease stability score at -0.116

The sequence identified as DEDQKFAMEVLELLVRAKVTGNEELLEKLLDPHTRVDINGREIHGWEEMLRILHEWRIRDLEFRVRDIHIIDGRLKIDGEERVEGEIDGRNMEIKYRTEVYYEKINGRWIVREMSVR registered its protease stability score at 1.75

The sequence identified as DEEEELNREALKEFHDDMKTGDERHILENLDPNTRIQFNGRDLHGRENAERFIRELIQKYGATVFNMKRVEVQGDWLHIDGELVIGDKKHRIHIIAVKINGRWTDTELRIK registered its protease stability score at 1.48

The sequence identified as SHHEEHLKRLESFLLEATDTGDEDFLTKLIDPHVKLDIDGVELHGREDWLKYFLDLGVDHVRITSSRDINGRLHLTTRMHIGDKITETRVHSEKFDGQWVIKEIIIH registered its protease stability score at 0.823
